# assay.notes: basal S. cerevisiae growth modulation, no modifier, primary screen, OD600, strain BY4716, 24 h, basal condition (AID 1173)
# study.conditions: OD600, 24 h, higher = more signal, called active from +8 up or from −8 down
Listed below: z-score values for each entry.
Enter a number only.

Please review the entries below; each comes with its answer.
INSERT INTO measurements (sample_smiles, measurement_name, reported_measurement) VALUES
  ('COC(=O)[C@H](Cc1ccccc1)N1CC(/C=C/C2CC2)=C[C@H]1[C@H](O)Cc1ccccc1', 'z-score', -2.67),
  ('O[C@@H](Cc1ccccc1)[C@@H](/C=C/C1CC1)N(CC#Cc1ccccc1)Cc1cccc(Cl)c1', 'z-score', 0.465),
  ('CCOC(=O)c1ccc(NC(=O)O[C@H]2[C@H](OC(=O)Nc3ccc4c(c3)OCO4)[C@@H](OC(=O)Nc3ccc4c(c3)OCO4)[C@@H](OC)O[C@@H]2CO)cc1', 'z-score', 1.1),
  ('CC(C)C(=C=CC[C@H](O)c1cccc(OCCO)c1)C[C@H](O)c1cc(Cl)cc(Cl)c1O', 'z-score', -4.38),
  ('COC(=O)[C@@]1(Cc2ccc(OC)cc2)[C@H]2c3cc(C(=O)N(C)C)n(Cc4ccc(Cl)c(C(F)(F)F)c4)c3C[C@H]2CN1C(=O)c1ccccc1', 'z-score', 1.86);

For the molecule shown here, COc1ccc(CCN2C(=O)[C@@]3(Cc4ccccc42)c2ccccc2C(=O)N(Cc2ccccc2OC)[C@H]3c2ccc(CO)cc2)cc1 , give the reported z-score.
-0.158

For the molecule shown here, COc1ccc(C#Cc2ccc3c(c2)[C@]2(C(=O)N3)[C@H](c3ccc(O)cc3)N3[C@H](c4ccccc4)[C@H](c4ccccc4)OC(=O)[C@H]3[C@@H]2C(=O)O)cc1 , give the reported z-score.
-1.16

Attribution: PubChem BioAssay
